Data credit: ChEMBL document CHEMBL1828541

# TARGET_DESC: 5-hydroxytryptamine receptor 2A (Homo sapiens) (UniProt P28223)
# Sequence (P28223 whole entry): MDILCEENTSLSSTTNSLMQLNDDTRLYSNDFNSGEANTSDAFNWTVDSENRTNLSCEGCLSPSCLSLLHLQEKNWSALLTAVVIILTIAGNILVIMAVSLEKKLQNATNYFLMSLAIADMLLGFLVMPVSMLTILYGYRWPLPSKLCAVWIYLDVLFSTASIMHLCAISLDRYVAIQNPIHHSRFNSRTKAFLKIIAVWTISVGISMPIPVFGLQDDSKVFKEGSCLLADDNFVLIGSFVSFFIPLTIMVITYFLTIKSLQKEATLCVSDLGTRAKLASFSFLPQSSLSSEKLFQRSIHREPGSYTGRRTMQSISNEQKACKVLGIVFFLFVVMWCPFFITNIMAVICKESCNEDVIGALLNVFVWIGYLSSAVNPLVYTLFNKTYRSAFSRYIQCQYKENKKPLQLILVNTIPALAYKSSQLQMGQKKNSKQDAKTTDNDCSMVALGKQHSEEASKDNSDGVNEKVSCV
# ASSAY_DETAILS: Antagonist activity at human 5-HT2A receptor assessed as inhibition of intracellular calcium mobilization by FLIPR assay
# Assay type: functional, cell-based
Each entry below carries its recorded Ke.
Express the result in nM but write the number alone.

{"COMPOUND": "COc1c(Br)c2c3c(c1OC)-c1cc4c(cc1CC3N(C)CC2)OCO4 (racemic)", "UNIT_DESCRIPTOR": "nM", "Ke": 53}
{"COMPOUND": "COc1cc2c3c(c1OCCCO)-c1cc4c(cc1CC3N(C)CC2)OCO4 (racemic)", "UNIT_DESCRIPTOR": "nM", "Ke": 708}
{"COMPOUND": "CCCCOc1cc2c3c(c1OC)-c1cc4c(cc1CC3N(C)CC2)OCO4 (racemic)", "UNIT_DESCRIPTOR": "nM", "Ke": 943}
{"COMPOUND": "CCOc1cc2c3c(c1OC)-c1cc4c(cc1CC3N(C)CC2)OCO4 (racemic)", "UNIT_DESCRIPTOR": "nM", "Ke": 378}
{"COMPOUND": "COc1cc2c3c(c1OCC(C)C)-c1cc4c(cc1CC3N(C)CC2)OCO4 (racemic)", "UNIT_DESCRIPTOR": "nM", "Ke": 367}
{"COMPOUND": "COc1cc2c3c(c1OCC1CCCCC1)-c1cc4c(cc1CC3N(C)CC2)OCO4 (racemic)", "UNIT_DESCRIPTOR": "nM", "Ke": 1720}
{"COMPOUND": "CCCOc1cc2c3c(c1OC)-c1cc4c(cc1CC3N(C)CC2)OCO4 (racemic)", "UNIT_DESCRIPTOR": "nM", "Ke": 389}
{"COMPOUND": "COc1c(OCC2CC2)cc2c3c1-c1cc4c(cc1CC3N(C)CC2)OCO4 (racemic)", "UNIT_DESCRIPTOR": "nM", "Ke": 484}

Notebook: pull reported Ke for 5-hydroxytryptamine receptor 2A (Homo sapiens) (UniProt P28223), entry COc1c(OCc2ccccc2)cc2c3c1-c1cc4c(cc1CC3N(C)CC2)OCO4 (racemic) 154

Notebook: pull reported Ke for 5-hydroxytryptamine receptor 2A (Homo sapiens) (UniProt P28223), entry C=CCOc1c(OC)cc2c3c1-c1cc4c(cc1CC3N(C)CC2)OCO4 (racemic) 70

Notebook: pull reported Ke for 5-hydroxytryptamine receptor 2A (Homo sapiens) (UniProt P28223), entry COc1c(Br)c2c3c(c1OC)-c1c(Br)c4c(c(Br)c1CC3N(C)CC2)OCO4 (racemic) 43

###

# TARGET_DESC: 5-hydroxytryptamine receptor 2A (Homo sapiens)
# ASSAY_DETAILS: Antagonist activity at human 5-HT2A receptor assessed as inhibition of intracellular calcium mobilization by FLIPR assay
# Format: functional, cell-based
Each entry below carries its recorded Ke.
Express the result in nM but write the number alone.

{"MOLECULE": "CCCCCCOc1c(OC)cc2c3c1-c1cc4c(cc1CC3N(C)CC2)OCO4 (racemic)", "TARGET_DESC": "5-hydroxytryptamine receptor 2A (Homo sapiens)", "Ke, nM": 71}

// below: Ke requested for another molecule
Notebook: pull reported Ke for 5-hydroxytryptamine receptor 2A (Homo sapiens), entry CCC(CC)COc1c(OC)cc2c3c1-c1cc4c(cc1CC3N(C)CC2)OCO4 (stereo not given) 806

###

# TARGET_DESC: Alpha-1A adrenergic receptor (Homo sapiens)
# Sequence (whole entry): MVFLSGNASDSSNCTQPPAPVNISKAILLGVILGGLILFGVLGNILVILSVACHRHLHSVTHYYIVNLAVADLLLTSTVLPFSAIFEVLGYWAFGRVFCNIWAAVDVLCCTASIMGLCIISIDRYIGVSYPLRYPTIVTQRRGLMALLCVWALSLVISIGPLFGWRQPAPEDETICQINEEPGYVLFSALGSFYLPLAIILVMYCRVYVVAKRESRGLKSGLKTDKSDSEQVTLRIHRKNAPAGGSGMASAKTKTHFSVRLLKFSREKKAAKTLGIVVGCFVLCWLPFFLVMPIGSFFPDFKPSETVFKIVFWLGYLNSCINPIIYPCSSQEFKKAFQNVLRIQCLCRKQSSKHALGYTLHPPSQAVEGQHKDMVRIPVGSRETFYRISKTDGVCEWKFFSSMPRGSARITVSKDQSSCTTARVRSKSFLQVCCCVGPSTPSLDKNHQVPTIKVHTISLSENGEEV
# ASSAY_DETAILS: Antagonist activity at human alpha1A receptor assessed as inhibition of intracellular calcium mobilization by FLIPR assay
# Assay type: functional, cell-based
EXPERIMENTAL_READOUT: Ke (nM)
Express the result in nM but write the number alone.

These solved cases illustrate the format of a correct answer.
{"COMPOUND": "CCCOc1cc2c3c(c1OC)-c1cc4c(cc1CC3N(C)CC2)OCO4 (racemic)", "Ke, nM": 133}
{"COMPOUND": "COc1c(OCC2CC2)cc2c3c1-c1cc4c(cc1CC3N(C)CC2)OCO4 (racemic)", "Ke, nM": 195}
{"COMPOUND": "CCCCCOc1cc2c3c(c1OC)-c1cc4c(cc1CC3N(C)CC2)OCO4 (racemic)", "Ke, nM": 449}
{"COMPOUND": "COc1cc2c3c(c1OC)-c1cc4c(cc1CC3N(C)CC2)OCO4 (racemic)", "Ke, nM": 36}
{"COMPOUND": "CCCN1CCc2cc(OC)c(OC)c3c2C1Cc1cc2c(cc1-3)OCO2 (racemic)", "Ke, nM": 38}

I am curious: what Ke value has been reported for CCOc1cc2c3c(c1OC)-c1cc4c(cc1CC3N(C)CC2)OCO4 (racemic) ? 52

I am curious: what Ke value has been reported for CCCCOc1cc2c3c(c1OC)-c1cc4c(cc1CC3N(C)CC2)OCO4 (racemic) ? 234

I am curious: what Ke value has been reported for CCCCCN1CCc2cc(OC)c(OC)c3c2C1Cc1cc2c(cc1-3)OCO2 (racemic) ? 720

I am curious: what Ke value has been reported for COc1cc2c3c(c1OC)-c1cc4c(cc1CC3N(CC1CC1)CC2)OCO4 (racemic) ? 319

I am curious: what Ke value has been reported for CCCCN1CCc2cc(OC)c(OC)c3c2C1Cc1cc2c(cc1-3)OCO2 (racemic) ? 210

###

# TARGET_DESC: UniProt P35348
# ASSAY_DETAILS: Antagonist activity at human alpha1A receptor assessed as inhibition of intracellular calcium mobilization by FLIPR assay
# Assay type: functional, cell-based
EXPERIMENTAL_READOUT: Ke (nM)
Express the result in nM but write the number alone.

{"COMPOUND": "CCN1CCc2cc(OC)c(OC)c3c2C1Cc1cc2c(cc1-3)OCO2 (racemic)", "TARGET_DESC": "UniProt P35348", "EXPERIMENTAL_READOUT": "Ke", "ASSAY_RESULT": 26}

I am curious: what Ke value has been reported for COc1c(OCc2ccccc2)cc2c3c1-c1cc4c(cc1CC3N(C)CC2)OCO4 (racemic) ? 1920

###

Each entry below carries its recorded Ke.
# TARGET_DESC: 5-hydroxytryptamine receptor 2A (Homo sapiens) (UniProt P28223)
# ASSAY_DETAILS: Antagonist activity at human 5-HT2A receptor assessed as inhibition of intracellular calcium mobilization by FLIPR assay
# Format: functional, cell-based

These solved cases illustrate the format of a correct answer.
{"COMPOUND": "CCCCCOc1cc2c3c(c1OC)-c1cc4c(cc1CC3N(C)CC2)OCO4 (racemic)", "TARGET_DESC": "5-hydroxytryptamine receptor 2A (Homo sapiens) (UniProt P28223)", "Ke": "> 10 µM"}
{"COMPOUND": "CCCCN1CCc2cc(OC)c(OC)c3c2C1Cc1cc2c(cc1-3)OCO2 (racemic)", "TARGET_DESC": "5-hydroxytryptamine receptor 2A (Homo sapiens) (UniProt P28223)", "Ke": "> 10 µM"}

// below: Ke requested for another compound
Notebook: pull reported Ke for 5-hydroxytryptamine receptor 2A (Homo sapiens) (UniProt P28223), entry COc1cc2c3c(c1OC)-c1cc4c(cc1CC3N(CC1CC1)CC2)OCO4 (racemic) > 10 µM

###

Each entry below carries its recorded Ke.
# TARGET_DESC: Alpha-1A adrenergic receptor (Homo sapiens)
# ASSAY_DETAILS: Antagonist activity at human alpha1A receptor assessed as inhibition of intracellular calcium mobilization by FLIPR assay
# Format: functional, cell-based

These solved cases illustrate the format of a correct answer.
{"COMPOUND": "COc1cc2c3c(c1OCC1CCCCC1)-c1cc4c(cc1CC3N(C)CC2)OCO4 (racemic)", "Ke": "> 10 µM"}
{"COMPOUND": "CCCCCCOc1c(OC)cc2c3c1-c1cc4c(cc1CC3N(C)CC2)OCO4 (racemic)", "Ke": "> 10 µM"}
{"COMPOUND": "COc1c(Br)c2c3c(c1OC)-c1cc4c(cc1CC3N(C)CC2)OCO4 (racemic)", "Ke": "> 10 µM"}
{"COMPOUND": "COc1cc2c3c(c1OCC(C)C)-c1cc4c(cc1CC3N(C)CC2)OCO4 (racemic)", "Ke": "> 10 µM"}
{"COMPOUND": "C=CCOc1c(OC)cc2c3c1-c1cc4c(cc1CC3N(C)CC2)OCO4 (racemic)", "Ke": "> 10 µM"}
{"COMPOUND": "COc1cc2c3c(c1OCCC(C)C)-c1cc4c(cc1CC3N(C)CC2)OCO4 (racemic)", "Ke": "> 10 µM"}

I am curious: what Ke value has been reported for COc1cc2c3c(c1OCC1CCC1)-c1cc4c(cc1CC3N(C)CC2)OCO4 (racemic) ? > 10 µM

I am curious: what Ke value has been reported for CCC(CC)COc1c(OC)cc2c3c1-c1cc4c(cc1CC3N(C)CC2)OCO4 (centres undefined) ? > 10 µM

I am curious: what Ke value has been reported for COc1cc2c3c(c1OCC1CCCC1)-c1cc4c(cc1CC3N(C)CC2)OCO4 (racemic) ? > 10 µM
